# methodSummary: Inhibition of yeast LMW-PTP1 expressed in Escherichia coli TB1 using p-nitrophenyl phosphate as substrate after 1 hr
# Parameters: species or system Saccharomyces cerevisiae
As shown below, each of these compounds has a reported IC50 value.

>  <givenSmiles>
CC1(C)C=C2[C@H]3CC[C@@H]4[C@@]5(C)CCC(=O)C(C)(C)[C@@H]5CC[C@@]4(C)[C@]3(C)CC[C@@]2(C(=O)O)CC1

>  <IC50>
51.2 µM

$$$$
>  <givenSmiles>
CC1(C)CC[C@]2(C(=O)O)CC[C@]3(C)C(=CC[C@@H]4[C@@]5(C)CC[C@H](O)C(C)(C)[C@@H]5CC[C@]43C)[C@@H]2C1

>  <IC50>
44.8 µM

$$$$
>  <givenSmiles>
C[C@H]1[C@H](C)CC[C@]2(C(=O)O)CC[C@]3(C)C(=CC[C@@H]4[C@@]5(C)CC[C@H](O)C(C)(C)[C@@H]5CC[C@]43C)[C@H]12

>  <IC50>
20 µM

$$$$

----------
# systemName: Tyrosine-protein phosphatase non-receptor type 1 (Homo sapiens)
# Sequence (P18031 whole entry): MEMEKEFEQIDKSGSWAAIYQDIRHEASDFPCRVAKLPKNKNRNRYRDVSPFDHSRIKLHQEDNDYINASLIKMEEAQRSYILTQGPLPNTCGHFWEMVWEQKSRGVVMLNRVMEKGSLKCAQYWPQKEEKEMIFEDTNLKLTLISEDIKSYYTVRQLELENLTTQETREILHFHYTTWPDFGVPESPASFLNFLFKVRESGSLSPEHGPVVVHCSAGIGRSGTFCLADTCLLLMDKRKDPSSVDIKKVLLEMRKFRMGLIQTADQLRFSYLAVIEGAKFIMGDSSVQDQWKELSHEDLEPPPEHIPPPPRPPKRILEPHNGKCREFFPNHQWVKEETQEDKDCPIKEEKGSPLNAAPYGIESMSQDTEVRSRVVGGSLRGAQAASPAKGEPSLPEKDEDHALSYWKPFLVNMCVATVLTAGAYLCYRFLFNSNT
# methodSummary: Mixed type inhibition of human recombinant PTP-1B expressed in Escherichia coli TB1 using p-nitrophenyl phosphate as substrate
endpointName: Ki (µM)

>  <givenSmiles>
CC1(C)C=C2[C@H]3CC[C@@H]4[C@@]5(C)CCC(=O)C(C)(C)[C@@H]5CC[C@@]4(C)[C@]3(C)CC[C@@]2(C(=O)O)CC1

>  <assayResult>
8

$$$$

----------
As shown below, each of these compounds has a reported IC50 value.
# systemName: Low molecular weight phosphotyrosine protein phosphatase (Homo sapiens, UniProt P24666)
# Sequence (P24666 whole entry): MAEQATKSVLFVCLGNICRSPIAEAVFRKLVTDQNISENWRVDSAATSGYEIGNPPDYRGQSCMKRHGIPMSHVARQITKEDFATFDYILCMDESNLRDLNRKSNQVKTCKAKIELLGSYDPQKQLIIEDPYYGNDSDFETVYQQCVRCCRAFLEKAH
# methodSummary: Inhibition of human recombinant LMW-PTP2 expressed in Escherichia coli TB1 using p-nitrophenyl phosphate as substrate after 1 hr
endpointName: IC50 (µM)

>  <compound>
CC1(C)C=C2[C@H]3CC[C@@H]4[C@@]5(C)CC[C@H](O)C(C)(C)[C@@H]5CC[C@@]4(C)[C@]3(C)CC[C@@]2(C(=O)O)CC1 [MOROLIC ACID]

>  <resultUnit>
µM

>  <assayResult>
30.6

$$$$
>  <compound>
CC1(C)CC[C@]2(C(=O)O)CC[C@]3(C)C(=CC[C@@H]4[C@@]5(C)CC[C@H](O)C(C)(C)[C@@H]5CC[C@]43C)[C@@H]2C1 [OLEANOLIC_ACID]

>  <resultUnit>
µM

>  <assayResult>
22.9

$$$$
>  <compound>
C[C@H]1[C@H](C)CC[C@]2(C(=O)O)CC[C@]3(C)C(=CC[C@@H]4[C@@]5(C)CC[C@H](O)C(C)(C)[C@@H]5CC[C@]43C)[C@H]12 [URSOLIC ACID]

>  <resultUnit>
µM

>  <assayResult>
11.1

$$$$
>  <compound>
CC1(C)C=C2[C@H]3CC[C@@H]4[C@@]5(C)CCC(=O)C(C)(C)[C@@H]5CC[C@@]4(C)[C@]3(C)CC[C@@]2(C(=O)O)CC1 [MORONIC ACID]

>  <resultUnit>
µM

>  <assayResult>
27.4

$$$$

----------
As shown below, each of these compounds has a reported IC50 value.
# systemName: Low molecular weight phosphotyrosine protein phosphatase (Homo sapiens, UniProt P24666)
# methodSummary: Inhibition of human recombinant LMW-PTP1 expressed in Escherichia coli TB1 using p-nitrophenyl phosphate as substrate after 1 hr
endpointName: IC50 (µM)

>  <givenSmiles>
CC1(C)CC[C@]2(C(=O)O)CC[C@]3(C)C(=CC[C@@H]4[C@@]5(C)CC[C@H](O)C(C)(C)[C@@H]5CC[C@]43C)[C@@H]2C1

>  <endpointName>
IC50

>  <resultUnit>
µM

>  <assayResult>
21.2

$$$$
>  <givenSmiles>
CC1(C)C=C2[C@H]3CC[C@@H]4[C@@]5(C)CC[C@H](O)C(C)(C)[C@@H]5CC[C@@]4(C)[C@]3(C)CC[C@@]2(C(=O)O)CC1

>  <endpointName>
IC50

>  <resultUnit>
µM

>  <assayResult>
13.4

$$$$
>  <givenSmiles>
CC1(C)C=C2[C@H]3CC[C@@H]4[C@@]5(C)CCC(=O)C(C)(C)[C@@H]5CC[C@@]4(C)[C@]3(C)CC[C@@]2(C(=O)O)CC1

>  <endpointName>
IC50

>  <resultUnit>
µM

>  <assayResult>
20.6

$$$$
>  <givenSmiles>
C[C@H]1[C@H](C)CC[C@]2(C(=O)O)CC[C@]3(C)C(=CC[C@@H]4[C@@]5(C)CC[C@H](O)C(C)(C)[C@@H]5CC[C@]43C)[C@H]12

>  <endpointName>
IC50

>  <resultUnit>
µM

>  <assayResult>
7.2

$$$$
